Please go through the items and note down their TGI.
- Tested on: EKVX NSCLC
- METHOD_DESCRIPTION: NCI tumour cell line growth inhibition, 48 h
Give bare numbers, in µM.

>  <STRUCTURE>
Cc1cc(S(=O)(=O)Nc2nc3ccccc3nc2-c2ccc(Cl)cc2)c(S)cc1Cl

>  <TESTED_TARGET>
EKVX NSCLC

>  <TEST_RESULT>
29.1

$$$$

Now for a further compound.
Request: Specify TGI for COc1ccc(C/C(=C(\C)c2ccc(OCCN3CCCC3)cc2)c2ccc(OCCN3CCCC3)cc2)cc1 and stop.
Result: 5.89

###

- System: RXF 393 renal
- METHOD_DESCRIPTION: NCI tumour cell line growth inhibition, 48 h; in the data active means GI50 below about 0.43 µM; inactive means the rest
# output must be one of 1 (active), 0 (inactive)

>  <MOLECULE>
CCN(CC)CCN1C(=O)c2c(c3c4ccccc4[nH]c3c3ccc4ccccc4c23)C1=O

>  <GROUP>
0

$$$$
>  <MOLECULE>
COc1ccc2c(c1)[nH]c(=O)c1c3cccc(F)c3cn21

>  <GROUP>
1

$$$$
>  <MOLECULE>
Cc1cc2c(cc1Cl)S/C(=C/C(=O)O)C(Nc1ccc3ncsc3c1)=NS2(=O)=O

>  <GROUP>
0

$$$$

Request: Kindly provide the recorded test outcome for the following molecule: CCCCCCCCCCCCCC[N+](C)(C)CCCCCCCCCCCCCC
Result: 0

Request: Record lookup: outcome of this test for C[C@]12CC[C@H]3[C@@H](CC=C4C[C@@H](N5CCCC5)CC[C@@]43C)[C@@H]1C/C(=C\c1cccc(OCCN3CCOCC3)c1)[C@@H]2O ?
Result: 0

Request: So what was the verdict on CCOCCCn1c2c(c3c(O)cccc31)C(=O)c1ccccc1-2 in this test?
Result: 0

Request: Dear colleague, could you share the recorded outcome for C=C/C=C/[C@@H](O)CC(=C)C[C@H]1OC2[C@H](C)[C@@H](OC(=O)C[C@H]3C[C@H](OC(C)=O)C[C@@]4(C[C@@](C)(O)C[C@H](CC(=C)[C@@H](C)[C@H](OC(C)=O)[C@H](C)C(=O)C[C@@H]5C[C@H](OC)CC6(C[C@@H](O)C[C@H](/C=C\CCC[C@H]7O[C@](O)(C=C[C@H]7C)[C@H]2O)O6)O5)O4)O3)[C@@H]1O when you have a moment?
Result: 1

Request: Outcome logged for CC1(C)CNc2cc(NC(=O)c3cccnc3NCc3ccncc3)ccc21 in this assay:
Result: 0
